Experiment: NCI Yeast Anticancer Drug Screen. Data for the rad50 strain (AID 155);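 further: 0% = growth of vehicle-only cultures of the same strain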
Conditions: S. cerevisiae rad50 strain growth inhibition; at 50.0 µM; active compounds read high
The panel holds about 79,000 compounds, 15% with a hit somewhere; the sample as a whole holds those more often.
growth inhibition overview
property name: growth inhibition (%)

>  <smiles str>
COC(=O)c1ccc(C=O)[nH]1

>  <experimental result>
8

$$$$
>  <smiles str>
Cn1nnc2c1C(=O)c1ccccc1C2=O

>  <experimental result>
0.6

$$$$
>  <smiles str>
CC(C)c1nc2c(c(=O)o1)CCS2

>  <experimental result>
-5.5

$$$$
>  <smiles str>
CC1(C)CCNc2ccccc2S1

>  <experimental result>
-0.55

$$$$
>  <smiles str>
O=C(O)Cc1ccc(N2N=C(c3ccccc3)CC2=O)cc1

>  <experimental result>
5.3

$$$$
>  <smiles str>
N#CNC(N)=Nc1ccc(Cl)cc1

>  <experimental result>
5.35

$$$$
>  <smiles str>
CN(C(=O)Sc1ccc([N+](=O)[O-])cc1)c1ccc([N+](=O)[O-])cc1

>  <experimental result>
1.3

$$$$

* * *

Experiment: NCI Yeast Anticancer Drug Screen. Data for the rad50 strain (AID 155);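 further: 0% = growth of vehicle-only cultures of the same strain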
Details: S. cerevisiae rad50 strain growth inhibition; at 50.0 µM; active compounds read high
The panel holds about 79,000 compounds, 15% with a hit somewhere; the sample as a whole holds those more often.
growth inhibition overview

>  <molecule>
COC(=O)c1nc(NN)[nH]c(=O)c1C

>  <unit annotation>
%

>  <growth inhibition>
-2.1

$$$$
>  <molecule>
CC(=O)Nc1ccc(-c2cn3ccccc3n2)cc1

>  <unit annotation>
%

>  <growth inhibition>
6.6

$$$$
>  <molecule>
O=C(Oc1ccc(-c2ccc([N+](=O)[O-])cc2)cc1)c1ccccc1

>  <unit annotation>
%

>  <growth inhibition>
29.8

$$$$
>  <molecule>
O=c1cc(C(Br)(Br)Br)[nH]c2ccccc12

>  <unit annotation>
%

>  <growth inhibition>
19.4

$$$$
>  <molecule>
C=CCN=C(N)SCCN(CCSC(N)=NCC=C)C(N)=O

>  <unit annotation>
%

>  <growth inhibition>
36.1

$$$$
>  <molecule>
CC12CS(=O)(=O)CC1O2 (configuration not stated)

>  <unit annotation>
%

>  <growth inhibition>
1.65

$$$$
>  <molecule>
CCCCCCCCCCCCCCCC(=O)NC(CCCCN)C(=O)NC(CCCCN)C(=O)OCC (configuration not stated)

>  <unit annotation>
%

>  <growth inhibition>
77.9

$$$$
>  <molecule>
CCCCCCCCCc1ccc(OCCOC(=O)OCCOc2ccc(CCCCCCCCC)cc2)cc1

>  <unit annotation>
%

>  <growth inhibition>
40.9

$$$$
>  <molecule>
O=C1CC(c2ccccc2)Oc2cc(O)cc(O)c21 (configuration not stated)

>  <unit annotation>
%

>  <growth inhibition>
9.1

$$$$
>  <molecule>
O=C1C=C(Sc2ccccc2)c2nccc3c2c1nc1ccccc13

>  <unit annotation>
%

>  <growth inhibition>
34.9

$$$$
>  <molecule>
O=C(NC(Cc1c[nH]c2ccccc12)C(=O)O)C(=O)c1c[nH]c2ccccc12 (configuration not stated)

>  <unit annotation>
%

>  <growth inhibition>
-9.9

$$$$
>  <molecule>
CN1CCN(C)c2nc3ccccc3nc21

>  <unit annotation>
%

>  <growth inhibition>
0.2

$$$$

Values were extracted from PubChem BioAssay (NCI).
